METHOD: Octanol-water partition coefficient, log P of the compound
Type: physicochemical
Use 2 as the dividing line for logP, with the line itself on the yes side and lower values as no.

Incoming: Threshold query (logP >= 2) on COC(=O)Nc1nc2cc(Oc3cccc4ccccc34)c(Cl)cc2[nH]1
Outgoing: yes

Others:
Incoming: Threshold query (logP >= 2) on CCC[S+]([O-])c1ccc2[nH]c(NC(=O)OC)nc2c1 (stereo unspecified) [ALBENDAZOLE OXIDE]
Outgoing: no

Incoming: Threshold query (logP >= 2) on COC(=O)Nc1nc2cc(C(=O)N3CCCCC3)ccc2[nH]1
Outgoing: no

Incoming: Threshold query (logP >= 2) on CNC(=O)c1ccc2[nH]c(NC(=O)OC)nc2c1
Outgoing: no

Incoming: Threshold query (logP >= 2) on COC(=O)Nc1nc2cc(C(=O)OCc3ccc([N+](=O)[O-])cc3)ccc2[nH]1
Outgoing: yes

Incoming: Threshold query (logP >= 2) on COC(=O)Nc1nc2cc(Cl)ccc2[nH]1
Outgoing: yes
